Values were extracted from ChEMBL document CHEMBL5303573.

methodNotes: The drug is tested on Collinsella aerofaciens strain: ATCC25986 for biotransformation. The drug concentrations were measured before and after a 12-h incubation by liquid-chromatography-coupled mass spectrometry (LC–MS)
recordedConditions: 2 µM
valueType: Bacterial Biotransformation

compound	measured
CCC1(c2ccc(N)cc2)CCC(=O)NC1=O (centres undefined) [AMINOGLUTETHIMIDE]	Compound NOT metabolized
CCS(=O)(=O)CCn1c([N+](=O)[O-])cnc1C [TINIDAZOLE]	Compound metabolized
CC(=O)Nc1ccc(OC(C)=O)cc1 [DIACETAMATE]	Compound metabolized
Cc1nc(-c2ccc(OCC(C)C)c(C#N)c2)sc1C(=O)O [FEBUXOSTAT]	Compound NOT metabolized
O=C(CCCN1CCC(O)(c2ccc(Cl)cc2)CC1)c1ccc(F)cc1 [HALOPERIDOL]	Compound NOT metabolized
CC(Oc1c(Cl)cccc1Cl)C1=NCCN1 (centres undefined) [LOFEXIDINE]	Compound metabolized
O=C1CN2Cc3c(ccc(Cl)c3Cl)N=C2N1 [ANAGRELIDE]	Compound NOT metabolized
OCCOCCN1CCN(C2=Nc3ccccc3Sc3ccccc32)CC1 [QUETIAPINE]	Compound NOT metabolized
CCOC(=O)[C@H](CCc1ccccc1)N[C@@H](C)C(=O)N1[C@H](C(=O)O)C[C@H]2CCCC[C@@H]21 [TRANDOLAPRIL]	Compound NOT metabolized
CN1CCN(CC/C=C2/c3ccccc3Sc3ccc(S(=O)(=O)N(C)C)cc32)CC1 [THIOTHIXENE]	Compound metabolized
NC(CO)(CO)CO.O=C(c1ccccc1)c1ccc2n1CCC2C(=O)O (centres undefined) [KETOROLAC TROMETHAMINE]	Compound NOT metabolized
CCOc1ccccc1OCCN[C@H](C)Cc1ccc(OC)c(S(N)(=O)=O)c1.Cl [TAMSULOSIN HYDROCHLORIDE]	Compound NOT metabolized
CN(C)CCC=C1c2ccccc2COc2ccccc21 [DOXEPIN]	Compound NOT metabolized
N#Cc1ccc(C(c2ccc(C#N)cc2)n2cncn2)cc1 [LETROZOLE]	Compound NOT metabolized
CN(C)CCC=C1c2ccccc2C=Cc2ccccc21 [CYCLOBENZAPRINE]	Compound NOT metabolized
Cc1ccc(-c2cc(C(F)(F)F)nn2-c2ccc(S(N)(=O)=O)cc2)cc1 [CELECOXIB]	Compound NOT metabolized
Br.CN(C)CCCC1(c2ccc(F)cc2)OCc2cc(C#N)ccc21 (centres undefined) [CITALOPRAM HYDROBROMIDE]	Compound NOT metabolized
O=c1[nH]c2ccccc2n1C1CCN(CCCC(c2ccc(F)cc2)c2ccc(F)cc2)CC1 [PIMOZIDE]	Compound NOT metabolized
CN(C(=O)CN(CCO)CC(=O)N(C)C(C)(C)Cc1ccccc1)C(C)(C)Cc1ccccc1 [OXETHAZAINE]	Compound NOT metabolized

====

methodNotes: The drug is tested on Escherichia coli strain: BW25113 for biotransformation. The drug concentrations were measured before and after a 12-h incubation by liquid-chromatography-coupled mass spectrometry (LC–MS)
recordedConditions: 2 µM

compound	Bacterial Biotransformation
Cc1ccc(S(=O)(=O)NC(=O)NN2CCCCCC2)cc1 [TOLAZAMIDE]	Compound NOT metabolized
CCCCC(=O)O[C@]1(C(=O)CO)[C@@H](C)C[C@H]2[C@@H]3CCC4=CC(=O)C=C[C@]4(C)[C@@]3(F)[C@@H](O)C[C@@]21C [BETAMETHASONE VALERATE]	Compound metabolized
O=P1(N(CCCl)CCCl)NCCCO1 (stereo not drawn) [CYCLOPHOSPHAMIDE ANHYDROUS]	Compound NOT metabolized
CN(C)C(=O)Oc1cc(OC(=O)N(C)C)cc(C(O)CNC(C)(C)C)c1 (stereo not drawn)	Compound NOT metabolized
c1ccc([C@H]2CN3CCSC3=N2)cc1	Compound metabolized
CCOC(=O)C1=C(C)NC(C)=C(C(=O)OC)C1c1cccc([N+](=O)[O-])c1 (stereo not drawn)	Compound metabolized
Cc1cc2c(s1)Nc1ccccc1N=C2N1CCN(C)CC1	Compound NOT metabolized
CCN(C(C)=O)c1cccc(-c2ccnc3c(C#N)cnn23)c1	Compound NOT metabolized
CC(C(=O)O)c1ccc2c(c1)Cc1cccnc1O2 (stereo not drawn)	Compound metabolized
CC1=C(CC(=O)O)c2cc(F)ccc2/C1=C\c1ccc([S+](C)[O-])cc1 (stereo not drawn)	Compound NOT metabolized
CC[C@H](C)C(=O)O[C@H]1C[C@@H](C)C=C2C=C[C@H](C)[C@H](CC[C@@H]3C[C@@H](O)CC(=O)O3)[C@H]21	Compound NOT metabolized
CCOC(=O)[C@H](CCc1ccccc1)N[C@H]1CCc2ccccc2N(CC(=O)O)C1=O	Compound NOT metabolized
Cc1ccc(-c2cc(C(F)(F)F)nn2-c2ccc(S(N)(=O)=O)cc2)cc1	Compound NOT metabolized
CN1CCN(C2=Nc3cc(Cl)ccc3Nc3ccccc32)CC1	Compound NOT metabolized
COc1cc2nc(N(C)CCCNC(=O)C3CCCO3)nc(N)c2cc1OC (stereo not drawn)	Compound NOT metabolized
N#Cc1ccc2c(c1)N(CCCN1CCC(O)CC1)c1ccccc1S2	Compound NOT metabolized
OC(CCN1CCCCC1)(c1ccccc1)C1CC2C=CC1C2 (stereo not drawn)	Compound NOT metabolized
CNC(=C[N+](=O)[O-])NCCSCc1ccc(CN(C)C)o1	Compound NOT metabolized

====

methodNotes: The drug is tested on Bifidobacterium longum subsp. Infantis strain: CCUG52486 for biotransformation. The drug concentrations were measured before and after a 12-h incubation by liquid-chromatography-coupled mass spectrometry (LC–MS)
recordedConditions: 2 µM
valueType: Bacterial Biotransformation

compound	valueType	measured
Cc1ccc(-c2nc3ccc(C)cn3c2CC(=O)N(C)C)cc1	Bacterial Biotransformation	Compound NOT metabolized
Br.COc1ccc2c(c1)[C@]13CCCC[C@@H]1[C@H](C2)N(C)CC3.O [DEXTROMETHORPHAN HYDROBROMIDE]	Bacterial Biotransformation	Compound NOT metabolized
COc1ccccc1OCC(O)COC(N)=O (stereo not drawn)	Bacterial Biotransformation	Compound NOT metabolized
COc1ccc2c(c1OC)C(=O)O[C@@H]2[C@H]1c2c(cc3c(c2OC)OCO3)CCN1C	Bacterial Biotransformation	Compound metabolized
CC(C)NCC(O)COc1ccc(CCOCC2CC2)cc1 (stereo not drawn)	Bacterial Biotransformation	Compound NOT metabolized
CN(C/C=C/C#CC(C)(C)C)Cc1cccc2ccccc12	Bacterial Biotransformation	Compound NOT metabolized
NC(CO)(CO)CO.O=C(c1ccccc1)c1ccc2n1CCC2C(=O)O (stereo not drawn)	Bacterial Biotransformation	Compound NOT metabolized
CN(C)CCOC(C)(c1ccccc1)c1ccccn1.O=C(O)CCC(=O)O (stereo not drawn) [DOXYLAMINE SUCCINATE]	Bacterial Biotransformation	Compound NOT metabolized
COc1cc2nc(N3CCN(C(=O)C4CCCO4)CC3)nc(N)c2cc1OC (stereo not drawn)	Bacterial Biotransformation	Compound NOT metabolized
CC(=O)CC(c1ccccc1)c1c(O)c2ccccc2oc1=O (stereo not drawn)	Bacterial Biotransformation	Compound NOT metabolized
CN1C(=O)CCS(=O)(=O)C1c1ccc(Cl)cc1 (stereo not drawn)	Bacterial Biotransformation	Compound NOT metabolized
CCOc1ccc2nc(S(N)(=O)=O)sc2c1 [ETHOXZOLAMIDE]	Bacterial Biotransformation	Compound metabolized
CC(C)(Oc1ccc(CCNC(=O)c2ccc(Cl)cc2)cc1)C(=O)O [BEZAFIBRATE]	Bacterial Biotransformation	Compound metabolized
COc1cc2nc(N(C)CCCNC(=O)C3CCCO3)nc(N)c2cc1OC (stereo not drawn)	Bacterial Biotransformation	Compound NOT metabolized
COCCCC/C(=N\OCCN)c1ccc(C(F)(F)F)cc1.O=C(O)/C=C\C(=O)O [FLUVOXAMINE MALEATE]	Bacterial Biotransformation	Compound NOT metabolized
N#Cc1ccc2[nH]cc(CCCCN3CCN(c4ccc5oc(C(N)=O)cc5c4)CC3)c2c1	Bacterial Biotransformation	Compound metabolized
O=C(NCc1ccccc1)OCCO [BURAMATE]	Bacterial Biotransformation	Compound NOT metabolized
Nc1nc(NC2CC2)c2ncn([C@H]3C=C[C@@H](CO)C3)c2n1.Nc1nc(NC2CC2)c2ncn([C@H]3C=C[C@@H](CO)C3)c2n1.O=S(=O)(O)O [ABACAVIR SULFATE]	Bacterial Biotransformation	Compound NOT metabolized

====

recordedConditions: parabacteroides distasonis, 12 h, 2 µM
Description: The drug is tested on Parabacteroides distasonis strain: ATCC8503 for biotransformation. The drug concentrations were measured before and after a 12-h incubation by liquid-chromatography-coupled mass spectrometry (LC–MS)
valueType: Bacterial Biotransformation

compound	measured
COC(=O)[C@H]1[C@H]2C[C@@H]3c4[nH]c5cc(OC)ccc5c4CCN3C[C@H]2C[C@@H](OC(=O)c2cc(OC)c(OC)c(OC)c2)[C@@H]1OC	Compound NOT metabolized
CCN(CC)CCNC(=O)c1ccc(NC(C)=O)cc1 [ACECAINIDE]	Compound NOT metabolized
Cc1nc(Nc2ncc(C(=O)Nc3c(C)cccc3Cl)s2)cc(N2CCN(CCO)CC2)n1.O	Compound metabolized
CS(=O)(=O)O.O.O.O.O=C1Cc2cc(CCN3CCN(c4nsc5ccccc45)CC3)c(Cl)cc2N1 [ZIPRASIDONE MESYLATE]	Compound metabolized
CCC(=O)NCC[C@@H]1CCc2ccc3c(c21)CCO3	Compound metabolized
CSc1ccc2c(c1)C(N1CCN(C)CC1)Cc1ccccc1S2.O=C(O)/C=C\C(=O)O (configuration not stated)	Compound metabolized
CC(=O)OCC(=O)[C@@]1(OC(C)=O)[C@@H](C)C[C@H]2[C@@H]3C[C@H](F)C4=CC(=O)C=C[C@]4(C)[C@@]3(F)[C@@H](O)C[C@@]21C [DIFLORASONE DIACETATE]	Compound metabolized
NC(=O)N1c2ccccc2CC(=O)c2ccccc21 [OXCARBAZEPINE]	Compound metabolized
Cc1ccccc1C(OCCN(C)C)c1ccccc1.O=C(O)CC(O)(CC(=O)O)C(=O)O (configuration not stated) [ORPHENADRINE CITRATE]	Compound NOT metabolized
O=C1CC2(CCCC2)CC(=O)N1CCCCN1CCN(c2ncccn2)CC1	Compound NOT metabolized
CC(O)(CS(=O)(=O)c1ccc(F)cc1)C(=O)Nc1ccc(C#N)c(C(F)(F)F)c1 (configuration not stated) [BICALUTAMIDE]	Compound metabolized
Cc1cc(C)cc(OCC2CNC(=O)O2)c1 (configuration not stated)	Compound metabolized
Cc1ccnc2c1NC(=O)c1cccnc1N2C1CC1	Compound NOT metabolized
O=C1N=C([O-])NC1(c1ccccc1)c1ccccc1.[Na+] [PHENYTOIN SODIUM]	Compound metabolized
CC12CC3CC(C)(C1)CC(N)(C3)C2 [MEMANTINE]	Compound NOT metabolized
NC12CC3CC(CC(C3)C1)C2	Compound NOT metabolized
CC#CCn1c(N2CCC[C@@H](N)C2)nc2c1c(=O)n(Cc1nc(C)c3ccccc3n1)c(=O)n2C	Compound metabolized
